system: P. falciparum stage V gametocytes; set-up: BacTiter-Glo ATP luminescence viability of purified stage V gametocytes in 384-well plates, per cent inhibition versus DMSO; conditions: 48 h, 5 µM; inhibitor
Screen size: about 13,000 compounds; about 3,200 (25%) showed an effect of 50% or more. This is one part of the list.
# % Inhibition per entry
Give your result in % as a bare value.

Look over these answered cases.
COMPOUND	READING UNIT	% Inhibition
COc1cc2c(cc1OCCN1CCC(N3CCCCC3)CC1)N(C(=O)/C=C/c1ccccc1OC(F)(F)F)CC2 [TCMDC-141018]	%	57.17
Cc1cnccc1/C=C/c1cccc(OCCCN2CCc3ccc(S(C)(=O)=O)cc3CC2)c1 [TCMDC-135876]	%	29.22

Form: compound = CCCCN(CCCC)CCOc1cc2c(cc1OC)CCN2C(=O)/C=C/c1ccccc1Cl [TCMDC-141328] ; % Inhibition = 30.32

Form: compound = COc1ccc(NC(=O)/C=C/c2ccccc2Cl)cc1OCCN1CCC(NC2CC2)CC1 [TCMDC-140756] ; % Inhibition = -32.57

###

test system: P. falciparum stage V gametocytes; set-up: BacTiter-Glo ATP luminescence viability of purified stage V gametocytes in 384-well plates, per cent inhibition versus DMSO; details: 48 h, 5 µM; inhibitor
In all, about 13,000 compounds went through this assay and about 3,200 (25%) showed an effect of 50% or more. The list shows a part of the results.
VALUE KIND: % Inhibition (%)
Give your result in % as a bare value.

Look over these answered cases.
1) CN(C)c1c(CNCCCCCCNCc2ccc3ccccc3c2N(C)C)ccc2ccccc12 115.6
2) CC(=O)N1Cc2ccccc2C1=O 7.417
3) CCOc1c(Br)cc(Cl)cc1CNCCCNc1nc2ccccc2[nH]1 5.667

Form: molecule = `CCOc1c(CNCCCCCCNCc2ccc3ccccc3c2OCC)ccc2ccccc12` ; % Inhibition = 73.68

Form: molecule = `CCCCCCc1ncc(-c2cc3cc(O)c(-c4ccccc4)cc3oc2=O)s1` ; % Inhibition = -4.644

###

system: P. falciparum stage V gametocytes; design: BacTiter-Glo ATP luminescence viability of purified stage V gametocytes in 384-well plates, per cent inhibition versus DMSO; conditions: 48 h, 5 µM; inhibitor
Out of some 13,000 compounds screened, about 3,200 (25%) showed an effect of 50% or more. The list shows a part of the results.
I would appreciate it if you labelled entries class 1 when % Inhibition is 20% or higher, otherwise class 0.

QUERY: Tell me whether % Inhibition is at least 20% here: COc1ccc2c(NN=Cc3ccncc3)ccnc2c1 [TCMDC-142030]
RESULT: class 0

QUERY: Tell me whether % Inhibition is at least 20% here: Nc1ncc(-c2ccc3nccc(-c4ccncc4)c3c2)cc1S(=O)(=O)N1CCOCC1 [TCMDC-134180]
RESULT: class 1

QUERY: Tell me whether % Inhibition is at least 20% here: CC[C@H]1CN(Cc2ccco2)CC[C@H]1CCCc1ccnc2ccc(O)cc12 [TCMDC-140336]
RESULT: class 0

QUERY: Tell me whether % Inhibition is at least 20% here: COc1ccccc1NC(=O)Nc1ccc(-c2ccc(-c3nc4cccc(C)c4[nH]3)s2)cc1 [TCMDC-133201]
RESULT: class 0

QUERY: Tell me whether % Inhibition is at least 20% here: CCc1ccc(CN2CCC(CNC(=O)c3cc(-c4ccccc4F)cs3)C2)cc1 (stereo not drawn) [TCMDC-134431]
RESULT: class 1

###

test system: P. falciparum stage V gametocytes; parameters: BacTiter-Glo ATP luminescence viability of purified stage V gametocytes in 384-well plates, per cent inhibition versus DMSO; settings: 48 h, 5 µM; inhibitor
Among all 13,000 compounds or so, about 3,200 (25%) showed an effect of 50% or more. This is one part of the list.
VALUE KIND: % Inhibition (%)
Give your result in % as a bare value.

MOLECULE	% Inhibition (%)
CC[C@H](N=C(Nc1ccc(-c2ccccc2)cc1)Nc1ccc(C#N)cc1O)c1ccccc1	-62.75
Cn1ccnc1CNC(=O)c1ccc(-c2cccc(-c3nc4cc(C(F)(F)F)ccc4[nH]3)c2)cc1	7.087
CCN(CC)CCN(Cc1ccc(-c2ccc(C(F)(F)F)cc2)cc1)C(=O)Cn1c(/C=C/c2ccco2)nc(=O)c2ccccc21	82.58
CCC(CC)N1C(=O)C(c2ccccc2)(c2ccccc2)N=C1N	-14.59
CCN(CC)CCN(Cc1ccc(-c2ccc(C(F)(F)F)cc2)cc1)C(=O)Cn1c(CCc2ccc(F)cc2)nc(=O)c2ccccc21	79.23
CCn1c(-c2cc(C)on2)nc2cnc(Oc3ccc(C(=O)N4CC(=O)N(C)C4C(C)(C)C)cc3)cc21 (stereo not shown)	2.551

Form: molecule = `CCN(CC)CCN(Cc1ccc(-c2ccc(C(F)(F)F)cc2)cc1)C(=O)Cn1c(CCC2CCCCC2)nc(=O)c2ccccc21` ; % Inhibition = 47.99

###

test system: P. falciparum stage V gametocytes; set-up: BacTiter-Glo ATP luminescence viability of purified stage V gametocytes in 384-well plates, per cent inhibition versus DMSO; settings: 48 h, 5 µM; inhibitor
In all, about 13,000 compounds went through this assay and about 3,200 (25%) showed an effect of 50% or more. The list shows a part of the results.
VALUE KIND: % Inhibition (%)
Give your result in % as a bare value.

COMPOUND	SYSTEM TESTED	VALUE KIND	RESULT
COc1cc(C(=O)N2CCOC(CCN3CCC(c4ccc(Cl)cc4)CC3)(c3ccc(Cl)c(Cl)c3)C2)cc(OC)c1OC (stereo not shown)	P. falciparum stage V gametocytes	% Inhibition	-3.164
COc1cc(C(=O)N2CCOC(CCN3CCC[C@H]3C(=O)Nc3ccccc3)(c3ccc(Cl)c(Cl)c3)C2)cc(OC)c1OC (stereo partly shown)	P. falciparum stage V gametocytes	% Inhibition	90.6
COc1cc(C(=O)N2CCOC(CCN3CCC4c5ccccc5CC43)(c3ccc(Cl)c(Cl)c3)C2)cc(OC)c1OC (stereo not shown)	P. falciparum stage V gametocytes	% Inhibition	-73.24

The observed % Inhibition for `CCCCCCN1CCC(CNCc2cccc(Cl)c2)CC1` when tested with P. falciparum stage V gametocytes stands at 45.32

The observed % Inhibition for `O=C(NCc1ccco1)c1ccc(CN2CCN(C(c3ccccc3)c3ccccc3)CC2)cc1` when tested with P. falciparum stage V gametocytes stands at -11.73

The observed % Inhibition for CC(C)C(NC(=O)c1c(F)cccc1F)C(=O)Nc1ccc(Cc2nc3ccccc3s2)cc1 (stereo not shown) when tested with P. falciparum stage V gametocytes stands at -3.098

The observed % Inhibition for `CCCCc1cc(Cc2cnc(N)nc2N)cc(OC)c1OC` when tested with P. falciparum stage V gametocytes stands at -18.26

The observed % Inhibition for `CC(=O)c1sc(Cc2nc3ccccc3s2)nc1C` when tested with P. falciparum stage V gametocytes stands at 10.02

The observed % Inhibition for `CCc1nc(N)nc(N)c1-c1ccc2c(c1)CCCC2` when tested with P. falciparum stage V gametocytes stands at 1.403

The observed % Inhibition for `O=C(/C=C/c1ccc(Cl)c(Cl)c1)NCCCCCN1CCCN(C(=O)Nc2cccc(F)c2)CC1` when tested with P. falciparum stage V gametocytes stands at -38.92

The observed % Inhibition for `c1ccc(COc2ccc(COc3ccc(Cn4ccnc4)cc3)cc2)cc1` when tested with P. falciparum stage V gametocytes stands at 11.69

The observed % Inhibition for `CCCCOc1c(CCNCCCCNCCc2cc(OC)c3ccccc3c2OCCCC)cc(OC)c2ccccc12` when tested with P. falciparum stage V gametocytes stands at 124.7

The observed % Inhibition for `CC(C)N1CCC(N(Cc2ccc(-c3ccc(C(F)(F)F)cc3)cc2)C(=O)Cn2c(CCc3cccc(F)c3F)cc(=O)c3c2CCC3)CC1` when tested with P. falciparum stage V gametocytes stands at 120.6

###

system: P. falciparum stage V gametocytes; design: BacTiter-Glo ATP luminescence viability of purified stage V gametocytes in 384-well plates, per cent inhibition versus DMSO; settings: 48 h, 5 µM; inhibitor
Screen size: about 13,000 compounds; about 3,200 (25%) showed an effect of 50% or more. This is one part of the list.
VALUE KIND: % Inhibition
Quote the value and follow it with the unit of measurement.

Look over these answered cases.
MOLECULE	SYSTEM TESTED	RESULT
Nc1nccc2ccc(-c3ccc(Oc4ccccc4)cc3)cc12	P. falciparum stage V gametocytes	19.11%
Cc1cccc2nc(-c3ccc(-c4cccc(CNCCCN5CCCC5=O)c4)s3)[nH]c12.O=C(O)C(F)(F)F	P. falciparum stage V gametocytes	-3.129%
O=C(O)C(F)(F)F.O=C1CCCN1CCCNCc1cccc(-c2ccc(-c3nc4cc(C(F)(F)F)ccc4[nH]3)s2)c1	P. falciparum stage V gametocytes	-29.57%
COc1ccc2c(c1)CC(NCc1ccc(-c3ccc4nc[nH]c4c3)cc1)C2 (stereo not shown)	P. falciparum stage V gametocytes	36.76%
Cc1cccc2nc(-c3ccc(-c4cccc(CN5CCCC5CN)c4)s3)[nH]c12.O=C(O)C(F)(F)F (stereo not shown)	P. falciparum stage V gametocytes	41.54%
O=C(O)C(F)(F)F.O=C1CCCN1CCCNCc1cccc(-c2ccc(-c3nc4ccccc4[nH]3)s2)c1	P. falciparum stage V gametocytes	78.47%

Form: molecule = NCC1CCCN1Cc1cccc(-c2ccc(-c3nc4cc(C(F)(F)F)ccc4[nH]3)s2)c1.O=C(O)C(F)(F)F (stereo not shown) ; % Inhibition = 36.35%

// provenance: paper PMC4552634
